B1: ZNF263 (parent)
chain: PEASHLRFRRFRFQEAAGPREALS

Variants of: B1
measurement-description: protein stability index of a GFP-peptide fusion (GPS, HEK-293T) (PSI 1-6); higher = more stable;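 further: lentivirally expressed fusions sorted by FACS into six bins by GFP to DsRed ratio, PSI derived from sequencing read proportions per bin multiplied by bin number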
condition-set: c terminus: a fixed tail appended
Documented protein stability index across a set of variants
Format: numeric value only, no unit, no commentary.

L23M    2.45
A17K    2.94
S4M    3.15
E2I    1.72
P1E    2.97
E2R    2.84
H5E    2.47
E15P    2.32

Request: protein stability index for A16C ?
Result: 2.19

Request: protein stability index for R12K ?
Result: 3.64

Request: protein stability index for H5I ?
Result: 1.91
